In this section, each of the molecules is paired with its reported GI50.
- System: HOP-62
- Experiment: NCI tumour cell line growth inhibition, 48 h
Activity calls are given as the source filed them. Rule as the data show it: active = GI50 up to about 1.1 µM and inactive = higher.
Assay endpoint: GI50

[[record]]
molecule = "Fc1cc(-c2ncc(Cl)cc2Cl)c2cccccc1-2"
test_system = "HOP-62"
assay_endpoint = "GI50"
result = "> 100 µM (inactive)"

[[record]]
molecule = "CCOC(=O)NC(N(C)C(C(C)C)P(=O)(OCC)OCC)(C(F)(F)F)C(F)(F)F (stereo not drawn)"
test_system = "HOP-62"
assay_endpoint = "GI50"
result = "> 100 µM (inactive)"

[[record]]
molecule = "COc1cccc2c1C(=O)c1c(O)c3c(c(O)c1C2=O)CC(O)(C(=O)CO)CC3OC1CC(N)C(I)C(C)O1 (stereo not drawn)"
test_system = "HOP-62"
assay_endpoint = "GI50"
result = "1.6 µM (inactive)"

[[record]]
molecule = "CN1OC(CO)CC12C1CC3CC(C1)CC2C3 (stereo not drawn)"
test_system = "HOP-62"
assay_endpoint = "GI50"
result = "> 100 µM (inactive)"

[[record]]
molecule = "CCCCC1C=Cn2c(=O)oc3c(OC(C)C)c(OC(C)C)c(O)c1c32 (stereo not drawn)"
test_system = "HOP-62"
assay_endpoint = "GI50"
result = "20.7 µM (inactive)"

[[record]]
molecule = "O=C(/C=C/c1ccccc1)CC1OC(=O)c2ccccc21 (stereo not drawn)"
test_system = "HOP-62"
assay_endpoint = "GI50"
result = "> 100 µM (inactive)"

[[record]]
molecule = "CC(C)NC(=O)OCc1c(COC(=O)NC(C)C)c(-c2ccc[n+](COC(=O)Cc3ccccc3)c2)n2c1CCC2"
test_system = "HOP-62"
assay_endpoint = "GI50"
result = "31.7 µM (inactive)"

[[record]]
molecule = "O=C(N/N=C/c1cc(Br)ccc1O)N/N=C/c1cc(Br)ccc1O"
test_system = "HOP-62"
assay_endpoint = "GI50"
result = "4.46 µM (inactive)"

[[record]]
molecule = "CC1=C(C(=O)O)N2C(=O)[C@@H](NC(=O)C(c3ccccc3)N3CSC(=S)N(C(C)C)C3)C2SC1 (stereo partly drawn)"
test_system = "HOP-62"
assay_endpoint = "GI50"
result = "> 100 µM (inactive)"

[[record]]
molecule = "CC1CC(c2ccc(Cl)cc2)=Nc2ccccc2S1 (stereo not drawn)"
test_system = "HOP-62"
assay_endpoint = "GI50"
result = "> 100 µM (inactive)"

[[record]]
molecule = "Cc1cc2c(=O)cc(-c3ccncc3)oc2c(C(N)=O)c1C"
test_system = "HOP-62"
assay_endpoint = "GI50"
result = "> 100 µM (inactive)"

[[record]]
molecule = "CCOC(=O)c1cn(CC)c(=O)n2c1nc1ccccc12"
test_system = "HOP-62"
assay_endpoint = "GI50"
result = "> 100 µM (inactive)"

[[record]]
molecule = "CS(=O)(=O)C(=Cc1ccccc1Cl)S(C)(=O)=O"
test_system = "HOP-62"
assay_endpoint = "GI50"
result = "> 100 µM (inactive)"

[[record]]
molecule = "CSc1nc2c(c(N(C)C)n1)C(O)n1c(nc3ccccc31)S2 (stereo not drawn)"
test_system = "HOP-62"
assay_endpoint = "GI50"
result = "23 µM (inactive)"

[[record]]
molecule = "CC1=CC(=O)NP(=O)(Oc2ccc(Cl)cc2)N1 (stereo not drawn)"
test_system = "HOP-62"
assay_endpoint = "GI50"
result = "> 100 µM (inactive)"

[[record]]
molecule = "Cc1cc(C)nc(NS(=O)(=O)c2ccc(NNc3c4ccccc4nc4c(C(=O)Nc5ccc(S(=O)(=O)Nc6cc(C)on6)cc5)cccc34)cc2)n1"
test_system = "HOP-62"
assay_endpoint = "GI50"
result = "82 µM (inactive)"

[[record]]
molecule = "CSc1nc(NC2OC(COC(C)=O)C(OC(C)=O)C(OC(C)=O)C2OC(C)=O)c(/N=C\\C=N/c2c(NC3OC(COC(C)=O)C(OC(C)=O)C(OC(C)=O)C3OC(C)=O)nc(SC)n(C)c2=O)c(=O)n1C (stereo not drawn)"
test_system = "HOP-62"
assay_endpoint = "GI50"
result = "4.32 µM (inactive)"

[[record]]
molecule = "CCCN(CCC)C1CCc2c(ccc3cc[nH]c23)C1 (stereo not drawn)"
test_system = "HOP-62"
assay_endpoint = "GI50"
result = "> 100 µM (inactive)"

[[record]]
molecule = "CC(C)N1CSC(=S)N(Cc2ccccc2)C1"
test_system = "HOP-62"
assay_endpoint = "GI50"
result = "> 10 µM (inactive)"

[[record]]
molecule = "COc1ccccc1NC(=O)CC(=O)N1N=C(N2c3ccccc3Sc3ccccc32)CC1c1ccccc1 (stereo not drawn)"
test_system = "HOP-62"
assay_endpoint = "GI50"
result = "> 100 µM (inactive)"

[[record]]
molecule = "CN(C(=O)c1ccncc1)c1ccccc1"
test_system = "HOP-62"
assay_endpoint = "GI50"
result = "> 100 µM (inactive)"

[[record]]
molecule = "C=CCC12CCC(=O)C=C1CCC1(C2)OCCO1 (stereo not drawn)"
test_system = "HOP-62"
assay_endpoint = "GI50"
result = "> 100 µM (inactive)"

[[record]]
molecule = "O=C1c2ccccc2OP(=O)(OCC(F)(F)F)OC1(C(F)(F)F)C(F)(F)F (stereo not drawn)"
test_system = "HOP-62"
assay_endpoint = "GI50"
result = "> 100 µM (inactive)"

[[record]]
molecule = "Cc1cc(C)nc(NS(=O)(=O)c2ccc(Nc3c4ccccc4nc4c(C(=O)Nc5ccc(S(=O)(=O)N=C(N)N)cc5)cccc34)cc2)n1"
test_system = "HOP-62"
assay_endpoint = "GI50"
result = "> 100 µM (inactive)"

[[record]]
molecule = "O=C(O)CSc1nnc2c3ccccc3c3ccccc3c2n1"
test_system = "HOP-62"
assay_endpoint = "GI50"
result = "46 µM (inactive)"

[[record]]
molecule = "N#CC1CC(c2ccccc2)Nc2cc(Cl)ccc2N1 (stereo not drawn)"
test_system = "HOP-62"
assay_endpoint = "GI50"
result = "55.7 µM (inactive)"

[[record]]
molecule = "CCCCCCc1cc2cc(C(=O)NCc3ccccc3)c(=N)oc2cc1O"
test_system = "HOP-62"
assay_endpoint = "GI50"
result = "> 100 µM (inactive)"

[[record]]
molecule = "S=CN1CCCCC1"
test_system = "HOP-62"
assay_endpoint = "GI50"
result = "> 100 µM (inactive)"

[[record]]
molecule = "CCC(C)C(NC(=O)c1cccc2c(=O)c3ccccc3[nH]c12)C(=O)O (stereo not drawn)"
test_system = "HOP-62"
assay_endpoint = "GI50"
result = "> 100 µM (inactive)"

[[record]]
molecule = "CC(=O)NNc1nc(C)c(C(=O)NNC(=O)C(=O)Nc2ccc([N+](=O)[O-])cc2[N+](=O)[O-])s1"
test_system = "HOP-62"
assay_endpoint = "GI50"
result = "> 100 µM (inactive)"

[[record]]
molecule = "CC1(C)CC(=O)c2c(N)n[nH]c2C1"
test_system = "HOP-62"
assay_endpoint = "GI50"
result = "> 100 µM (inactive)"

[[record]]
molecule = "Cc1cccc(CC(C)(C)C)c1NC(=O)C(=O)C(C(=O)c1ccc2ccccc2c1)C1OC(=O)c2ccccc21 (stereo not drawn)"
test_system = "HOP-62"
assay_endpoint = "GI50"
result = "15.4 µM (inactive)"

[[record]]
molecule = "O=C(OCC1CCCN2CCCCC12)c1ccncc1 (stereo not drawn)"
test_system = "HOP-62"
assay_endpoint = "GI50"
result = "> 100 µM (inactive)"


----------
- Tested on: HCT-15
Assay endpoint: GI50

[[record]]
compound = "CC(=O)[C@@H]1C/C(=C\\OCc2ccccc2)O[C@H]1C"
result = "> 100 µM"

[[record]]
compound = "CSc1nc(SC)c2cnn(CC3CO3)c2n1 (stereo unspecified)"
result = "25.2 µM"

[[record]]
compound = "Cc1c2cc[n+](CCN3CCCCC3)cc2c(C)c2c1[nH]c1ccc(O)cc12"
result = "12.5 µM"

[[record]]
compound = "CC1(C)C(N2CCOCC2)CS1(=O)=O (stereo unspecified)"
result = "> 10 µM"

[[record]]
compound = "COc1ccc(NC(=O)C(=O)C(C(=O)c2ccccc2)C2OC(=O)c3ccccc32)c([N+](=O)[O-])c1 (stereo unspecified)"
result = "> 100 µM"

[[record]]
compound = "CCOC(=O)c1c(SCCN2CCCC2)n(-c2ccccc2)c(=S)n(-c2ccccc2)c1=O"
result = "2.21 µM"

[[record]]
compound = "C/C(=N\\NC(=S)NC(CCC(=O)O)C(=O)O)c1cnccn1 (stereo unspecified)"
result = "> 100 µM"

[[record]]
compound = "COc1ccc2[nH]c3c(c2c1)CCc1c(OC)cccc1-3"
result = "> 100 µM"

[[record]]
compound = "Nc1nc(N)c(N=O)c(OCC2CCCCC2)n1"
result = "5.5 µM"

[[record]]
compound = "CCOC(=O)/C(C(=S)Nc1ccccc1)=C(/N)N1CCCC1"
result = "> 100 µM"

[[record]]
compound = "CCOC(=O)C(C)c1nc2ccc(C(F)(F)F)cc2[nH]c1=O (stereo unspecified)"
result = "95.3 µM"

[[record]]
compound = "C=C/C(C)=C\\CC1[C@](C)(O)CC[C@H]2C(C)(C)C(=O)CC[C@]12C (stereo partly specified)"
result = "51.9 µM"

[[record]]
compound = "NC1CCCCC1NCCNC1CCCCC1N (stereo unspecified)"
result = "> 100 µM"

[[record]]
compound = "O=C1CC[N+]2=Cc3ccccc3O[B-]2(c2ccccc2)O1 (stereo unspecified)"
result = "> 100 µM"

[[record]]
compound = "COc1cc2cc3c4cc(OC)c(OC)cc4cc[n+]3cc2cc1OC"
result = "> 100 µM"

[[record]]
compound = "CCCCCCc1cc2cc(C(=O)NCc3ccccc3)c(=N)oc2cc1O"
result = "> 100 µM"

